Test: Inhibition of HIV-1 topoisomerase II beta kinase phosphorylation in the presence of […][gamma 32P]-ATP incubated for 30 mins by liquid scintillation counter analysis
Parameters: species or system Human immunodeficiency virus 1
recordedEndpoint: IC50 (nM)

Here is how some compounds turned out for IC50.
chemSmiles	unitDescriptor	result
C[n+]1cccc(/C=C2\CCC/C(=C\c3ccc[n+](C)c3)C2=O)c1	nM	0.1
C[n+]1ccc(/C=C2\CCC/C(=C\c3cc[n+](C)cc3)C2=O)cc1	nM	0.15
O=C1/C(=C/c2cccnc2)CCC/C1=C\c1cccnc1	nM	0.32
O=C1/C(=C/c2ccccn2)CCC/C1=C\c1ccccn1	nM	0.55

[P] O=C1/C(=C/c2ccncc2)CCC/C1=C\c1ccncc1
[Q] C[n+]1ccccc1/C=C1\CCC/C(=C\c2cccc[n+]2C)C1=O
// task: argmin of IC50 over [ P , Q ] Provide the label of your selected option as the answer.
Q
(Q: 0.14 nM, P: 0.44 nM)

---

compounds and their reported CC50 at 16 h
Assay: Cytotoxicity against human SUP-T1 cells assessed as reduction in cell viability incubated for 16 hrs by MTT assay
Type: toxicity, cell-based
# value in µM; strip the unit string

chemSmiles	unitDescriptor	result
O=C1/C(=C/c2ccncc2)CCC/C1=C\c1ccncc1	µM	0.82
O=C1/C(=C/c2cccnc2)CCC/C1=C\c1cccnc1	µM	0.96
O=C1/C(=C/c2ccccn2)CCC/C1=C\c1ccccn1	µM	0.92

Recorded CC50 at 16 h of C[n+]1cccc(/C=C2\CCC/C(=C\c3ccc[n+](C)c3)C2=O)c1 , please.
2.12

Recorded CC50 at 16 h of C[n+]1ccc(/C=C2\CCC/C(=C\c3cc[n+](C)cc3)C2=O)cc1 , please.
2.02

Recorded CC50 at 16 h of C[n+]1ccccc1/C=C1\CCC/C(=C\c2cccc[n+]2C)C1=O , please.
2.04

Recorded CC50 at 16 h of c1ccc(-c2cccnc2)cc1 , please.
1.5
